PBM binding z-score values, listed per item
# Tested on: PPARg DBDmut IVT, anti-PPARg (DBD mutation: PPARg1 K132A/R137A, NR concentration 270 nM)
# Method summary: PBM binding z-score (relative to random genomic background probes); higher = stronger binding; sequences stand for … in GC…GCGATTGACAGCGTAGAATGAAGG
Observation type: PBM binding z-score

> print(dat)
                   construct.sequence     observation.type  test.result
1  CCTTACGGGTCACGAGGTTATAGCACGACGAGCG  PBM binding z-score        0.701
2  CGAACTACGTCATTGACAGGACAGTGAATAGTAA  PBM binding z-score         0.69
3  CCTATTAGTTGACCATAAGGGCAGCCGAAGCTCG  PBM binding z-score       -0.298
4  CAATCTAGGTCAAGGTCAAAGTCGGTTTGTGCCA  PBM binding z-score         1.26
5  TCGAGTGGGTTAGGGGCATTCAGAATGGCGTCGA  PBM binding z-score       -0.345
6  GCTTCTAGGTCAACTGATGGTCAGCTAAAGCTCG  PBM binding z-score        0.797
7  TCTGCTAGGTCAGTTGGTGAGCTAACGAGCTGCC  PBM binding z-score         1.14
8  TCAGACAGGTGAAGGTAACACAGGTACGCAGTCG  PBM binding z-score       0.0418
